target-or-system: Full-length, GST-tagged, human CaMKIIδ (Homo sapiens, UniProt Q13557)
Construct: Full-Length, Glutathione-S-Transferase(GST)-Tagged, Human CaMKIIδ was purchased from Carna Biosciences; purchased Carna Biosciences 02-111
Sequence (Q13557 1-478 isoform Q13557-12): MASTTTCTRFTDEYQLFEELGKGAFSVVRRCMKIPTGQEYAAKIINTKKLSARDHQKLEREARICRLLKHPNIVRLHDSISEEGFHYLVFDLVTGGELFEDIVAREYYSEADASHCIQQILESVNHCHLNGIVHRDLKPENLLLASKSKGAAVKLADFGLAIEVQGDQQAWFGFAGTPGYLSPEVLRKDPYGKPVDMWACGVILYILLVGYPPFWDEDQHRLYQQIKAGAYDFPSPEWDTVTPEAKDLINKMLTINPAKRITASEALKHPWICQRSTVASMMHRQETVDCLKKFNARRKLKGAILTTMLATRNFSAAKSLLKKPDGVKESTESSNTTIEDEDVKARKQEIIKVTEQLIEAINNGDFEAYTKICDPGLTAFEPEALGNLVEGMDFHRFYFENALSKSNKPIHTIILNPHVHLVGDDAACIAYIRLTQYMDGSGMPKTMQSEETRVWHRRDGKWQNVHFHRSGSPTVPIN
experiment-notes: CaMKIIδ binding assay (TR-FRET with BODIPY-labeled probe ligand)
assay-setup: CaMKIIδ binding assay, results of Table 2
pIC50: −log10 of the molar value.
We begin with a simple list: items and their reported pIC50.

Task item: Report pIC50 for COc1cc2c(cc1Nc1ncc(-c3ccc(Cl)c(O[C@@H](C)Cn4cnnn4)c3)cn1)CN(CCO)CC2 please.
Reply: > 8.00

Task item: Report pIC50 for COCCN1CCc2cc(Nc3ncc(-c4ccc(Cl)c(O[C@@H](C)Cn5cnnn5)c4)cn3)c(OC)cc2C1 please.
Reply: > 8.00

Task item: Report pIC50 for C[C@@H](Cn1cnnn1)Oc1cc(-c2cnc(Nc3ccc4c(c3)CCN4C(=O)OC(C)(C)C)nc2)ccc1Cl please.
Reply: ≤ 7.00

Task item: Report pIC50 for COCC(=O)N1CCc2cc(OC)c(Nc3ncc(-c4ccc(Cl)c(O[C@@H](C)Cn5cnnn5)c4)cn3)cc2C1 please.
Reply: 7.00 to 8.00

Task item: Report pIC50 for C[C@@H](Cn1cnnn1)Oc1cc(-c2cnc(Nc3cc4c(cc3Cl)CCNCC4)nc2)ccc1Cl please.
Reply: > 8.00

====

target-or-system: Full-length, GST-tagged, human CaMKIIδ (Homo sapiens, UniProt Q13557)
Construct: Full-Length, Glutathione-S-Transferase(GST)-Tagged, Human CaMKIIδ was purchased from Carna Biosciences; purchased Carna Biosciences 02-111
experiment-notes: CaMKIIδ binding assay (TR-FRET with BODIPY-labeled probe ligand)
assay-setup: CaMKIIδ binding assay, results of Table 2
We begin with a simple list: items and their reported IC50.

cpd-smiles: C[C@@H](Cn1cnnn1)Oc1cc(-c2cnc(Nc3ccc4c(c3)N(C(=O)CCCN(C)C)CC4)nc2)ccc1Cl
measured-value: < 10 nM

cpd-smiles: COc1cc2cc[nH]c2cc1Nc1ncc(-c2ccc(Cl)c(O[C@@H](C)Cn3cnnn3)c2)cn1
measured-value: 10 to 100 nM

cpd-smiles: C[C@@H](Cn1cnnn1)Oc1cc(-c2cnc(Nc3ccc4c(c3)N(C(=O)C3CCN(C)CC3)CC4)nc2)ccc1Cl
measured-value: < 10 nM

cpd-smiles: COc1ccc(C(=O)O)cc1Nc1ncc(-c2ccc(Cl)c(O[C@@H](C)Cn3cnnn3)c2)cn1
measured-value: ≥ 100 nM

Task item: Report IC50 for COc1cc2c(cc1Nc1ncc(-c3ccc(Cl)c(O[C@@H](C)Cn4cnnn4)c3)cn1)CN(c1ccnc(C)n1)CC2 please.
Reply: 10 to 100 nM

Task item: Report IC50 for COc1ccc(N2CCNCC2)cc1Nc1ncc(-c2ccc(Cl)c(O[C@@H](C)Cn3cnnn3)c2)cn1 please.
Reply: < 10 nM

Task item: Report IC50 for C[C@@H](Cn1cnnn1)Oc1cc(-c2cnc(Nc3cn(C4CCN(CC#N)CC4)nc3C(F)(F)F)nc2)ccc1Cl please.
Reply: 10 to 100 nM

====

We begin with a simple list: items and their reported IC50.
target-or-system: Full-length, GST-tagged, human CaMKIIδ (Homo sapiens, UniProt Q13557)
Construct: Full-Length, Glutathione-S-Transferase(GST)-Tagged, Human CaMKIIδ was purchased from Carna Biosciences; purchased Carna Biosciences 02-111
experiment-notes: CaMKIIδ binding assay (TR-FRET with BODIPY-labeled probe ligand)
assay-setup: Table 2; activity class for CaMKIIδ

Past entries and their recorded results:
compound: C[C@@H](Cn1cnnn1)Oc1cc(-c2cnc(Nc3cn(CC4CN(Cc5ccccc5)CCO4)nc3C(F)(F)F)nc2)ccc1Cl (stereo partly shown) [Example 641]
target-or-system: Full-length, GST-tagged, human CaMKIIδ (Homo sapiens, UniProt Q13557)
IC50: ≥ 100 nM
--
compound: C[C@@H](Cn1cnnn1)Oc1cc(-c2cnc(Nc3cn(CCOCCO)nc3C(F)(F)F)nc2)ccc1Cl [Example 620]
target-or-system: Full-length, GST-tagged, human CaMKIIδ (Homo sapiens, UniProt Q13557)
IC50: 10 to 100 nM

Task item: Report IC50 for C[C@@H](Cn1cnnn1)Oc1cc(-c2cnc(Nc3cc(-c4ccccc4)nn3C)nc2)ccc1Cl [Example 719] please.
Reply: 10 to 100 nM

Task item: Report IC50 for COc1cc(N2CCN(CC3COC3)CC2)ncc1Nc1ncc(-c2ccc(Cl)c(O[C@@H](C)Cn3cnnn3)c2)cn1 [Example 652] please.
Reply: 10 to 100 nM

====

target-or-system: Full-length, GST-tagged, human CaMKIIδ (Homo sapiens)
Construct: Full-Length, Glutathione-S-Transferase(GST)-Tagged, Human CaMKIIδ was purchased from Carna Biosciences; purchased Carna Biosciences 02-111
experiment-notes: CaMKIIδ binding assay (TR-FRET with BODIPY-labeled probe ligand)
assay-setup: CaMKIIδ binding assay; activity class per Table 2
pIC50: −log10 of the molar value.
We begin with a simple list: items and their reported pIC50.

Past entries and their recorded results:
compound: C[C@@H](CN1CCCC1=O)Oc1cc(-c2cnc(Nc3cn([C@H]4CC[C@H](N5CCOCC5)CC4)nc3C(F)(F)F)nc2)ccc1C#N
target-or-system: Full-length, GST-tagged, human CaMKIIδ (Homo sapiens)
pIC50: 7.00 to 8.00

compound: CC(Cn1cnnn1)Oc1cc(-c2cnc(Nc3cn(CC4(O)CCC(N5CCOCC5)CC4)nc3OCC(F)(F)F)nc2)ccc1Cl (stereo not shown) [Example 911]
target-or-system: Full-length, GST-tagged, human CaMKIIδ (Homo sapiens)
pIC50: > 8.00

compound: C[C@@H](Cn1cnnn1)Oc1cc(-c2cnc(Nc3cn(C4CC5(C4)CN(C(=O)OC(C)(C)C)C5)nc3C(F)(F)F)nc2)ccc1Cl
target-or-system: Full-length, GST-tagged, human CaMKIIδ (Homo sapiens)
pIC50: ≤ 7.00

Task item: Item: CC(Cn1cnnn1)Oc1cc(-c2cnc(Nc3cn(CC4(O)CCC(C)(O)CC4)nc3OCC(F)(F)F)nc2)ccc1Cl (stereo not shown) [Example 923] Test system: Full-length, GST-tagged, human CaMKIIδ (Homo sapiens) Read-out: pIC50 Value: ?
Reply: > 8.00

Task item: Item: C[C@@H](Cn1cnnn1)Oc1cc(-c2cnc(Nc3cn(C4CC5(C4)CN(c4ncccn4)C5)nc3OCC(F)(F)F)nc2)ccc1Cl Test system: Full-length, GST-tagged, human CaMKIIδ (Homo sapiens) Read-out: pIC50 Value: ?
Reply: > 8.00

Task item: Item: CC(Cn1cnnn1)Oc1cc(-c2cnc(Nc3cn(C4CCC(O)(CN5CCOCC5)CC4)nc3C(F)(F)F)nc2)ccc1Cl (stereo not shown) Test system: Full-length, GST-tagged, human CaMKIIδ (Homo sapiens) Read-out: pIC50 Value: ?
Reply: > 8.00

Task item: Item: CC(C)c1nn(C2CC3(C2)CN(C2COC2)C3)cc1Nc1ncc(-c2ccc(Cl)c(O[C@@H](C)Cn3cnnn3)c2)cn1 Test system: Full-length, GST-tagged, human CaMKIIδ (Homo sapiens) Read-out: pIC50 Value: ?
Reply: > 8.00

Task item: Item: CO[C@H]1CC[C@@H](N2CC3(CC(n4cc(Nc5ncc(-c6ccc(Cl)c(O[C@@H](C)Cn7cnnn7)c6)cn5)c(C(C)C)n4)C3)C2)CC1 Test system: Full-length, GST-tagged, human CaMKIIδ (Homo sapiens) Read-out: pIC50 Value: ?
Reply: > 8.00

====

We begin with a simple list: items and their reported pIC50.
target-or-system: Full-length, GST-tagged, human CaMKIIδ (Homo sapiens, UniProt Q13557)
Construct: Full-Length, Glutathione-S-Transferase(GST)-Tagged, Human CaMKIIδ was purchased from Carna Biosciences; purchased Carna Biosciences 02-111
experiment-notes: CaMKIIδ binding assay (TR-FRET with BODIPY-labeled probe ligand)
assay-setup: Table 2; activity class for CaMKIIδ
pIC50: −log10 of the molar value.

Past entries and their recorded results:
cpd-smiles: COc1ccc(C(=O)N2CCCNCC2)cc1Nc1ncc(-c2ccc(Cl)c(O[C@@H](C)Cn3cnnn3)c2)cn1
pIC50: > 8.00
//
cpd-smiles: COc1cc(N2C[C@@H]3C[C@H]2CN3C2CCOCC2)ccc1Nc1ncc(-c2ccc(Cl)c(O[C@@H](C)Cn3cnnn3)c2)cn1
pIC50: 7.00 to 8.00
//
cpd-smiles: COc1nc(N2CCCN(C3CCOCC3)CC2)ccc1Nc1ncc(-c2ccc(Cl)c(O[C@@H](C)Cn3cnnn3)c2)cn1
pIC50: > 8.00

Now turn to the next molecule.
Task item: Report pIC50 for COc1nn(C2CCN(C3CCOCC3)CC2)cc1Nc1ncc(-c2ccc(Cl)c(O[C@@H](C)Cn3cnnn3)c2)cn1 please.
Reply: > 8.00

====

target-or-system: Full-length, GST-tagged, human CaMKIIδ (Homo sapiens)
Construct: Full-Length, Glutathione-S-Transferase(GST)-Tagged, Human CaMKIIδ was purchased from Carna Biosciences; purchased Carna Biosciences 02-111
experiment-notes: CaMKIIδ binding assay (TR-FRET with BODIPY-labeled probe ligand)
assay-setup: Table 2; CaMKIIδ binding assay, activity given as class A/B/C
Experimental: In vitro CaMKIIδ inhibitory activity was evaluated by a binding assay. Full-Length, Glutathione-S-Transferase(GST)-Tagged, Human CaMKIIδ was purchased from Carna Biosciences (product #02-111, Kobe, Japan). Full-length bovine calmodulin was purchased from Wako Pure Chemical Industries (Osaka, Japan). […] Time-Resolved Fluorescence Resonance Energy Transfer (TR-FRET) Assay […] The percentage of inhibition of test compounds was calculated according to equation (1) Inhibition (%)=100×([…]−T)/(μH−μL) (1) […]
We begin with a simple list: items and their reported IC50.

Past entries and their recorded results:
molecule: Cc1cc(Nc2ncc(-c3ccc(Cl)c(O[C@@H](C)Cn4cnnn4)c3)cn2)n(C(C)C)n1 [Example 742]
IC50: 10 to 100 nM
//
molecule: C[C@@H](Cn1cnnn1)Oc1cc(-c2cnc(Nc3cc(N4CCN(C5CCOCC5)CC4)ccc3OC(F)(F)F)nc2)ccc1Cl [Example 768]
IC50: < 10 nM
//
molecule: C[C@@H](Cn1cnnn1)Oc1cc(-c2cnc(Nc3cc(C(C)(C)C)nn3C)nc2)ccc1Cl [Example 740]
IC50: ≥ 100 nM
//
molecule: C[C@@H](Cn1cnnn1)Oc1cc(-c2cnc(Nc3cn(C4CC4)nc3OCC(F)(F)F)nc2)ccc1Cl [Example 774]
IC50: < 10 nM
//
molecule: COCCn1cc(Nc2ncc(-c3ccc(Cl)c(O[C@@H](C)Cn4cnnn4)c3)cn2)c(C(F)(F)F)n1 [Example 737]
IC50: 10 to 100 nM
//
molecule: C[C@@H](CO)Cn1cc(Nc2ncc(-c3ccc(Cl)c(O[C@@H](C)Cn4cnnn4)c3)cn2)c(OCC(F)(F)F)n1 [Example 784]
IC50: < 10 nM

Now turn to the next molecule.
Task item: Report IC50 for C[C@@H](Cn1cnnn1)Oc1cc(-c2cnc(Nc3cn(C4CC5(C4)CN(C4COC4)C5)nc3C(F)(F)F)nc2)ccc1Cl [Example 832] please.
Reply: < 10 nM
